Biological target: T1, human Claudin 6 with C-terminal FLAG tag (human, UniProt P56747 1-220)
T1 construct: whole, on cells; forced expression in Ba/F3 cells; also called hCLDN6; hCLN6
T1 sequence (looked up): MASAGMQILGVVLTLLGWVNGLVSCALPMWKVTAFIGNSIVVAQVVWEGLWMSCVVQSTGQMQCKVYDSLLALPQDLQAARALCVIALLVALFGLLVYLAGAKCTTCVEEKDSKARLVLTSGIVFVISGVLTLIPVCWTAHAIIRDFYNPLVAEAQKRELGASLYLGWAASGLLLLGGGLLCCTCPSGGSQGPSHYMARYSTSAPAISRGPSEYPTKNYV
Assay: flow cytometry, hCLDN6/Ba/F3 cells, 2 ug/mL antibody
Recorded X geometric mean by entry
Respond numerically, and do not add a unit to the figure.

Example results:
binder	X geometric mean
CDN35 (antibody, V domains shown, mouse monoclonal, IgG2a/IgK) VH: EVQLQQSGPELVKPGASVKMSCKASGYTFTDYYMNWVKQSHGKSLEWIGRVNPSNGGTSYNQKFKGKATLTVDKSLSTAYMQLNSLTSEDSAVYYCARGLAYYSNSFTYWGQGTLVTVSA VL: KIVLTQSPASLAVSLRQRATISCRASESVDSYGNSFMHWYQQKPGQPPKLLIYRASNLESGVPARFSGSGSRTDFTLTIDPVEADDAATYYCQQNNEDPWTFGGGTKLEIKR	36
CDN28 (antibody, mouse IgG1, kappa, V domains shown, mouse monoclonal, IgG1/IgK) VH: EVQLQQSGPELVKPGASVKISCKASGYSFTGYFMNWVKQSHGKSLEWLGRINPYNGDTFYNQKFKGKATLTVDKSSNTAHMELRSLTSEDSAVYYCARGDGYYVTSLAYWGQGTLVTVSA VL: NIVMTQSPKSMSMSVGERVTLSCKASENVVSYVSWFQQKPEQSPKLLIYGASNRYTGVPDRFTGSGSATDFTLTISSVQAEDLADYYCGQSYSYPLTFGAGTKLELKR	9
CDN38 (antibody, V domains shown) VH: EVQLQQSGPELVKPGASVKMSCKASGYSFTGYFMNWVKQSHGKSLEWIGRINPYNGDTFYNQKFKGKATLTVDKSSSTAHMELRSLTSEDSALYYCARSGNYVMDYWGQGTSVTVSS VL: DIVLTQSPASLAVSLGQSVTISCRASESVEYYGTSLMQWYQQKPGQPPKLLIYGASNVESGVPARFSGSGSGTDFSLNIHPVEEDDIAMYFCQQSRKVPWTFGGGTKLEIKR	9
CDN16 (antibody, mouse IgG2b, kappa, V domains shown, mouse monoclonal, IgG2b/IgK) VH: EVQLQQSGPELVKPGASVKMSCKASGYTFTDYYMNWVKQSHGKSLEWIGRVNPSNGGTSYNQKFKGKATLTVDKSLSTAYMQLNSLTSEDSAVYYCARGLAYYSNSFVYWGQGTLVTVSA VL: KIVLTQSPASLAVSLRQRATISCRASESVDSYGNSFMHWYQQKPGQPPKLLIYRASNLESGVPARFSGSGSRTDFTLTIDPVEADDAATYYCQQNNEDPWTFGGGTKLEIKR	9

Notebook: CDN04 (antibody, mouse IgG1, kappa, V domains shown, mouse monoclonal, IgG1/IgK; also called CDN4) VH: EVQLQQSGPELVKPGASMKISCKASGYSFTGYTMNWMKQGHGKNLEWIGLINPYNGGTSYNQKFKDKATLTLDKSSSSAYMELLSLTSEDSAVYYCARGSYGSSYFDYWGQGTTLTVSS VL: DIVMSQSPSSLAVSVGEKVTMSCKSSQSLLYGSNQKNYLAWYQQKPGQSPKLLIYWASTRESGVPDRFTGSGSGTDFTLTISSVKAEDLAVYYCQQYYNFPYTFGGGTKLEIKR , X geometric mean read as 9

Notebook: CDN27 (antibody, V domains shown, mouse monoclonal, IgG2a/IgK) VH: EVQLQQSGPELVKPGASVKISCKASGYSFTGYFMNWVKQSHGKSLEWIGRINPYNGDTFYNQKFKGKATLTVDKSSSTAHMELRSLTSEDSAVYYCARSGDWYFDVWGAGTTVTVSS VL: DIVLTQSPASLAVSLGQRATISCRASKSVSTSSYSYMHWYQQKPGQPPKLLIKFASYLESGVPARFSGSGSGTDFTLNIHPVEEEDAATYYCQHSREFPRTFGGGTKLEIKR , X geometric mean read as 25

Origin of measurements: patent US20100111852A1
